All values here come from PubChem BioAssay (NCI).

In this section we review reported TGI values for a set of compounds.
System: NCI-H23 lung
Experiment: NCI tumour cell line growth inhibition, 48 h

Input line: Give recorded TGI. CCC(C#N)N(Cc1ccc(CN(C(=O)c2ccccc2)C(C#N)CC)cc1)C(=O)c1ccccc1 (stereo not drawn)
Output line: > 100 µM

Input line: Give recorded TGI. Brc1ccc(-c2ccc(-c3ccc(-c4ccc(Br)s4)s3)s2)s1
Output line: > 100 µM

Input line: Give recorded TGI. CC(C)=CCC/C(C)=C/CC/C(C)=C/[C@@H]1[C@@H](CO)[C@]1(C)CC/C=C(\C)CCC=C(C)C
Output line: > 100 µM

* * *

Tested on: SK-MEL-5 melanoma
Experiment: NCI tumour cell line growth inhibition, 48 h
Readout name: TGI

{"Smiles": "CNC(=S)NNC(=O)c1c(C)nc2sccn12", "Target or system": "SK-MEL-5 melanoma", "TGI": "> 100 µM"}
{"Smiles": "O=S1(=O)COc2ccccc2-c2ncncc21", "Target or system": "SK-MEL-5 melanoma", "TGI": "> 100 µM"}

Input line: Give recorded TGI. C/C(=N\N=C(\N)OB(F)F)c1ccccn1
Output line: > 100 µM

* * *

Tested on: CAKI-1 renal
Test: NCI tumour cell line growth inhibition, 48 h
Readout name: TGI

Example entries begin here.
{"Compound": "CCOc1cc(NC(C)=O)ccc1C(=O)N/N=C/c1ccco1", "TGI": "> 100 µM"}
{"Compound": "CCOC(=O)N/N=C/C1=NN(C(=O)OCC)S(=O)C1C (stereo not drawn)", "TGI": "> 100 µM"}

Input line: Give recorded TGI. Cc1cc2c(cc1C)C(=O)c1ncccc1C2=O
Output line: > 100 µM

* * *

System: DU-145 prostate
Test: NCI tumour cell line growth inhibition, 48 h
In this section we review reported TGI values for a set of compounds.
Response body: numeric value in µM, unit text excluded.

{"Compound": "CC(/C=C/C=C/C=C/C=C/C=C/C(O)=C1/C(=O)C(CCC(=O)O)N(C)C1=O)=C\\C(C)C(OC1CC(O)C(O)C(C)O1)C(C)C (configuration not stated)", "TGI (µM)": 12.4}
{"Compound": "C/C=C1/CN2CCC34C5=CC(=O)C(c6cc7c(cc6OC)N(C)C6=C(C(=O)OC)CC8(CC)CCCN9CCC67C98)=CC5=NC23CCC1C4C(=O)OC (configuration not stated)", "TGI (µM)": 37.2}
{"Compound": "O=C(c1ccc(F)c(F)c1Nc1ccc(I)cc1F)N1CC(O)([C@H]2CCCCN2)C1", "TGI (µM)": 22.3}
{"Compound": "Fc1ccc(C2(CCCN3CCc4[nH]c5cc(F)ccc5c4C3)OCCO2)cc1", "TGI (µM)": 28}
{"Compound": "COC(=O)C1=C(C(=O)Nc2cccnc2)C2OC1(C(Cc1ccccc1)Oc1ccccc1)C1OC21 (configuration not stated)", "TGI (µM)": 3.27}
{"Compound": "Oc1c(Cl)cc(C(c2cc(Cl)c(O)c(Cl)c2)C(c2cc(Cl)c(O)c(Cl)c2)c2cc(Cl)c(O)c(Cl)c2)cc1Cl", "TGI (µM)": 14.1}

Input line: Give recorded TGI. COC(=O)C1=C(O)C(C(=O)OC)[C@]2(O)[C@H](C(=O)OC)[C@H]1C[C@@H](c1ccccc1OC)[C@H]2C(=O)OC (some centres not stated)
Output line: 26.2

Input line: Give recorded TGI. COC(=O)C1=C2C3=C(C(=O)c4ccccc4C3=O)N(Cc3ccccc3)C2(OC(C)=O)C=CC1=O (configuration not stated)
Output line: 61.9

Input line: Give recorded TGI. O=C(Nc1cccc(-n2cc(-c3ccncc3)c(-c3cc(O)cc(Cl)c3)n2)c1)Nc1ccc(Cl)c(Cl)c1
Output line: 10.1

* * *

System: SK-OV-3 ovarian
Experiment: NCI tumour cell line growth inhibition, 48 h
In this section we review reported TGI values for a set of compounds.

Example entries begin here.
{"Compound": "Nc1ccc(S(=O)(=O)Nc2nc3ccccc3nc2Nc2ccc(S(N)(=O)=O)cc2)cc1", "Test result": "> 100 µM"}
{"Compound": "O=[N+]([O-])c1ccccc1S(=O)(=O)c1ccccc1[N+](=O)[O-]", "Test result": "> 100 µM"}
{"Compound": "CC1=C(C(=O)OCCc2ccc([N+](=O)[O-])cc2)C(c2ccccc2C(F)(F)F)C(C(=O)OC(C)C)=C(C)N1 (stereo not drawn)", "Test result": "30.6 µM"}
{"Compound": "CCOC(=O)C(Cc1ccc(OC(=O)c2ccc(OC)cc2OC)cc1)NC(=O)C(F)(F)F (stereo not drawn)", "Test result": "> 100 µM"}
{"Compound": "Nc1nc(N)nc(-c2cnc3ccccc3c2)n1", "Test result": "> 100 µM"}
{"Compound": "Clc1cccc(Cn2cc(Cc3cn(Cc4cccc(Cl)c4)c4ccccc34)c3ccccc32)c1", "Test result": "> 100 µM"}
{"Compound": "Cc1cc(NC(=O)NC(=O)c2ccccc2[N+](=O)[O-])ccc1Oc1ncc(Cl)cn1", "Test result": "24.1 µM"}

Proceeding to the next compound to report its TGI.
Input line: Give recorded TGI. CC(=O)c1cc2c3c(c1)c1cc4c(cc1c(=O)n3CC2)OCO4
Output line: > 100 µM

* * *

In this section we review reported TGI values for a set of compounds.
Tested on: MDA-N
Assay: NCI tumour cell line growth inhibition, 48 h

Example entries begin here.
{"Smiles": "C[C@]1(O)CC(=O)c2c(c(-c3ccc4cc5c(c(O)c4c3O)C(=O)C[C@@](C)(O)C5)c3cccc(O)c3c2O)C1", "Target or system": "MDA-N", "TGI": "19.4 µM"}
{"Smiles": "C=CC1(c2ccc(Cl)c(Cl)c2)OCCO1", "Target or system": "MDA-N", "TGI": "> 100 µM"}

Input line: Give recorded TGI. Fc1cc(C2=C[C@H](c3ccc4c(c3)OCO4)NC(=S)N2)c(Cl)cc1Cl
Output line: > 100 µM

* * *

Test system: COLO 205 colon
Test: NCI tumour cell line growth inhibition, 48 h
In this section we review reported TGI values for a set of compounds.

Example entries begin here.
{"Compound": "OCC1C(O)C(O)[C@@H]2SCCN12 (some centres undefined)", "Test result": "> 100 µM"}
{"Compound": "COc1cc(O)c2c(=O)c3ccccc3n(C)c2c1", "Test result": "> 100 µM"}

Input line: Provide TGI, recorded with COLO 205 colon, of Cn1c(=O)c(Sc2ccccc2F)cc2cnc(NC3CCOCC3)nc21
Output line: > 25 µM

Input line: Provide TGI, recorded with COLO 205 colon, of NC(=O)c1ncn(C2OC(CO)C(O)C2O)n1 (centres undefined)
Output line: > 100 µM

* * *

System: OVCAR-5 ovarian
Test: NCI tumour cell line growth inhibition, 48 h
Readout name: TGI

{"Compound": "Clc1ccc(N/N=C/c2ccccn2)nc1", "TGI": "> 94.3 µM"}
{"Compound": "COC(=O)C1=C(C(=O)Nc2cccnc2)C2OC1(C(Cc1ccccc1)Oc1ccccc1)C1OC21 (stereo not given)", "TGI": "16.8 µM"}
{"Compound": "C[C@]1(O)CC(=O)c2c(c(-c3ccc4cc5c(c(O)c4c3O)C(=O)C[C@@](C)(O)C5)c3cccc(O)c3c2O)C1", "TGI": "25.3 µM"}
{"Compound": "CC1=NN(c2cccc(Cl)c2)C(=N/c2nc3ccccc3s2)/C1=C\\C=C\\c1ccccc1", "TGI": "> 100 µM"}

Proceeding to the next compound to report its TGI.
Input line: Provide TGI, recorded with OVCAR-5 ovarian, of O=C(/C=C/c1ccccc1O)c1ccccc1
Output line: 31.1 µM

* * *

Tested on: OVCAR-4 ovarian
Assay: NCI tumour cell line growth inhibition, 48 h
Readout name: TGI

Example entries begin here.
{"Smiles": "CC(C)N(CCCNc1c2ccccc2nc2cccc([N+](=O)[O-])c12)C(C)C", "Readout name": "TGI", "Test result": "0.103 µM"}
{"Smiles": "Cc1c(NC(=O)CCCl)c(=O)oc2c(C)c3occc(=O)c3cc12", "Readout name": "TGI", "Test result": "> 100 µM"}

Proceeding to the next compound to report its TGI.
Input line: Give recorded TGI. O=C(CSc1nc2ccc(Cl)cc2c(=O)n1-c1ccccc1)N=Nc1c(O)[nH]c2ccc(F)cc12
Output line: 5.65 µM

* * *

System: SK-MEL-5 melanoma
Experiment: NCI tumour cell line growth inhibition, 48 h
Readout name: TGI

Example entries begin here.
{"Compound": "O=C1OCC2=C1C(c1ccccc1)c1cc3c(cc1N2CCO)CCC3 (stereo unspecified)", "TGI": "5.41 µM"}
{"Compound": "CCC(C)[C@H]1C(=O)N=C(N)N1C(=O)OCc1ccccc1 (stereo partly specified)", "TGI": "> 100 µM"}
{"Compound": "CCOC(=O)CC(=O)N(c1ccc(OC)cc1)C(C(=O)OC)c1ccccc1 (stereo unspecified)", "TGI": "> 100 µM"}

Input line: Give recorded TGI. O=S1Cc2ccccc2CS1 (stereo unspecified)
Output line: > 100 µM

Input line: Give recorded TGI. NC(CCc1ccccc1)(C(=O)O)c1ccccc1 (stereo unspecified)
Output line: > 100 µM

Input line: Give recorded TGI. CC(C)(C)OC(=O)N1C(C2=COc3ccccc3O2)=COc2cccnc21
Output line: 3.17 µM

Input line: Give recorded TGI. CCOP(=O)(OCC)/C(=C/c1ccccc1)CC(C)=O
Output line: > 100 µM

Input line: Give recorded TGI. CCOC(=O)c1c(N2CCOCC2)[nH]c(=O)c(C(c2c(O)c(C(=O)OCC)c(N3CCOCC3)[nH]c2=O)C(C)C)c1O
Output line: > 100 µM

Input line: Give recorded TGI. CCN(CC)CC(O)CNc1ccc(NCC(O)CCl)c2c1C(=O)c1ccccc1C2=O (stereo unspecified)
Output line: 22.1 µM

Input line: Give recorded TGI. Cc1ccc2c(=O)c(-c3nnsn3)c[nH]c2n1
Output line: > 100 µM

Input line: Give recorded TGI. COc1ccc(Cc2nc3cc(Cl)ccc3o2)cc1
Output line: 31.1 µM

Input line: Give recorded TGI. O=C(CSc1nc2ccc(Cl)cc2c(=O)n1-c1ccccc1)N=Nc1c(O)[nH]c2ccc(F)cc12
Output line: 10.3 µM

Input line: Give recorded TGI. NC(N)=NS(=O)(=O)c1ccc(Nc2c3ccccc3nc3c(C(=O)N4CCN(CCO)CC4)ccc(Cl)c23)cc1
Output line: > 100 µM

Input line: Give recorded TGI. CCCCCCCCCCCCCCCCc1c(C(=O)OC)[nH]c(=S)[nH]c1=O
Output line: > 50 µM

Input line: Give recorded TGI. Cc1cc(N2CCOCC2)nc(N(CCCNc2ccnc3cc(Cl)ccc23)Cc2ccc3c(c2)OCO3)n1
Output line: 2.88 µM

Input line: Give recorded TGI. Nn1c(-c2ccccc2Nc2ccccc2-c2n[nH]c(=S)n2N)n[nH]c1=S
Output line: > 50 µM

Input line: Give recorded TGI. COC1=C(C)C(=O)C2C(C1=O)C(c1ccc(OC)c(OC)c1)[C@H]2C (stereo partly specified)
Output line: > 100 µM

Input line: Give recorded TGI. O=C(Nc1cccnc1)c1cccs1
Output line: > 100 µM

Input line: Give recorded TGI. Nc1ccccc1C#Cc1ccccc1C#Cc1ccccc1N
Output line: 22.9 µM

Input line: Give recorded TGI. CC(=O)OCC1OC(O[C@@H]2C[C@H]3C(C)(C)[C@H](OC(C)=O)CC[C@]3(C)[C@H]3CC[C@@]45C[C@H](O)C[C@H](C)[C@@H]4CC=C5[C@@]32C)C(O)C(O)C1O (stereo partly specified)
Output line: 8.65 µM

Input line: Give recorded TGI. NC(=O)Cc1ccccc1Oc1nccc(-c2c(-c3ccc(F)cc3)ncn2C2CCNCC2)n1
Output line: > 25 µM
